What GI50 was measured for each of the following?
system: SK-MEL-5; assay: NCI tumour cell line growth inhibition, 48 h
The source made the active and inactive calls. No stated cut-off is given here; in the data, active = GI50 up to about 1.1 µM and inactive = higher.

Give the reported GI50 for this compound. COc1cc(C=C2C(C)=NN(c3cccc(Cl)c3)C23C(Cl)C(=O)N3c2nc3ccccc3s2)ccc1O (configuration not stated)
17.2 µM (inactive)

Give the reported GI50 for this compound. Cc1ccc(S(=O)(=O)N(c2ccccc2F)C2CCCCC2O)cc1 (configuration not stated)
20.7 µM (inactive)

Give the reported GI50 for this compound. COC(=O)c1c(O)ccc2c1C1(Cc3ccccc3C1=O)C(O)O2 (configuration not stated)
34.3 µM (inactive)

Give the reported GI50 for this compound. COP(=O)(CC(=O)C1OC(OCc2ccccc2)C(OCc2ccccc2)C(OCc2ccccc2)C1OCc1ccccc1)OC (configuration not stated)
4.23 µM (inactive)

Give the reported GI50 for this compound. O=C(O)c1cc(/N=N/c2ccc([N+](=O)[O-])cc2)ccc1O
34.6 µM (inactive)

Give the reported GI50 for this compound. CN(C)c1ccc(C2SCC(=O)N2c2nc3cc4sc(N5C(=O)CSC5c5ccc(N(C)C)cc5)nc4cc3s2)cc1 (configuration not stated)
32 µM (inactive)

Give the reported GI50 for this compound. CC(=O)OCC1OC(Nc2ccc3nc(C)n(-c4ccccc4)c(=O)c3c2)C(OC(C)=O)C(OC(C)=O)C1OC(C)=O (configuration not stated)
> 50 µM (inactive)

Give the reported GI50 for this compound. COc1ccc2c(c1)N=C(N)n1c(nc3ccccc31)S2
7.29 µM (inactive)

Give the reported GI50 for this compound. CS/C=C\C(=O)O[C@H]1C[C@@H]2[C@@H](O)c3occ(C)c3C[C@]2(C)[C@@H](C)C1
14.9 µM (inactive)

Give the reported GI50 for this compound. O=c1[nH]nc2ccccc2c1Cc1ccccc1
> 100 µM (inactive)

Give the reported GI50 for this compound. CCNCCCCNCC
> 3750 µM (inactive)

Give the reported GI50 for this compound. Oc1ccc(-c2nc3ccc4ccccc4c3c3c2CCCC3)c(O)c1
9.68 µM (inactive)

Give the reported GI50 for this compound. Cn1nc(-c2ccccc2)nc1[N+](=O)[O-]
> 10 µM (inactive)

Give the reported GI50 for this compound. CCOC(=O)/C(=C/c1ccc(N(C)C)cc1)N(CC)CC
> 10 µM (inactive)

Give the reported GI50 for this compound. CC12Nc3c(Cl)cc(Cl)cc3N1C(=O)c1ccccc12 (configuration not stated)
> 100 µM (inactive)

Give the reported GI50 for this compound. Cc1c(/N=N/c2ccc(Cl)cc2)c(C)n(C2OC(CO)C(O)C(O)C2O)c(=S)c1C#N (configuration not stated)
8.45 µM (inactive)

Give the reported GI50 for this compound. CCOC(=O)C(SCCO)C(C(=O)OCC)n1ccc(=O)[nH]c1=O (configuration not stated)
63.5 µM (inactive)
